Test system: Mus musculus
measurement-notes: Effect on hypercalcemic activity in Swiss CD-1 mouse assessed as increase in serum calcium level at 0.3 microg/kg,ip using sesame oil as vehicle for 21 days on every other day by QuantiChom calcium assay
Format: functional
condition-notes: dose 0.3 µg/kg, time 21.0 day
Active and inactive are the calls of the source. No cut-off for these calls is given here.
Use one of these outcomes when replying: 1.0 for active, 0.0 for inactive

Use these answered entries as a reference point.
chemical-string | class-assignment
C=C1/C(=C\C=C(/CC)c2cccc(CCC#CCC(O)(C(F)(F)F)C(F)(F)F)c2)C[C@@H](O)C[C@@H]1O | 0.0
C=C1/C(=C\C=C(/CC)c2cccc(CCC#CCC(C)(C)O)c2)C[C@@H](O)C[C@@H]1O | 0.0
C=C1/C(=C\C=C(/C)c2cccc(CCC#CCC(O)(C(F)(F)F)C(F)(F)F)c2)C[C@@H](O)C[C@@H]1O | 0.0

Prompt: Write down the call the test reported for this compound. Item: "C=C1/C(=C\C=C2/CCC[C@]3(C)[C@@H]([C@H](C)CCCC(C)(C)O)CC[C@@H]23)C[C@@H](O)C[C@@H]1O"
Completion: 1.0

Prompt: Write down the call the test reported for this compound. Item: "C=C1/C(=C\C=C(/CC)c2cccc(CCCCCC(O)(C(F)(F)F)C(F)(F)F)c2)C[C@@H](O)C[C@@H]1O"
Completion: 0.0
